Literature pIC50 values, system: Protein deacetylase HDAC6 (Homo sapiens, UniProt Q9UBN7).
pIC50: −log10 of the molar value.

Some solved cases for reference:
Ask: Determine its reported pIC50: "COc1ccc(OC)c(CNc2ccc(C(=O)NO)cc2)c1"
Reply: 7.40 to 7.52

Ask: Tell us which pIC50 value is on record for "Cc1nc(CC(=O)N2CCc3cc(C(=O)NO)sc3C2)cs1"
Reply: 7.00 to 7.30

Ask: Supply reported pIC50 belonging to this compound: "Cc1nn(-c2ccccc2)nc1CN1CCc2cc(C(=O)NO)sc2C1"
Reply: > 7.30

Ask: Consider the compound O=C(NO)c1ccc(Cn2ccc(C3(c4ccncc4)CCCO3)cc2=O)cc1 (stereo not drawn) and give its recorded pIC50.
Reply: ≥ 8.00

Ask: Consider the compound CC(NC(=O)C(C)(C)C)c1ncc(C(=O)NO)s1 (stereo not drawn) and give its recorded pIC50.
Reply: < 6.30

Ask: Quick one: give measured pIC50 for "CCc1nc2cc(F)c(/C=C/C(=O)NO)cc2c(=O)n1-c1ccc(F)cc1C"
Reply: 7.62

Ask: Give the value of pIC50 reported for the following: "O=C(/C=C/c1ccc(CNCC23CC4CC(CC(C4)C2)C3)c(F)c1)NO"
Reply: 8.02

Ask: Could you please provide reported pIC50 for "CN1CCN(CCOc2ccc(/C=C/C(=O)NO)c(Oc3cccc(Cl)c3)c2)CC1" ? Thanks!
Reply: 6.00 to 7.00

Could I get pIC50 for every one of these entries?
1. CCC(=O)CCCOC[C@H](NC(=O)[C@H]1CC12CCN(C)CC2)c1ncc(-c2cc3ccccc3nc2OC)[nH]1
2. Cc1ncc(C(=O)N2CCc3cc(C(=O)NO)sc3C2)c(-c2ccccc2)n1
3. O=C(NO)c1cc2c(s1)CN(C(=O)c1ccc(C(F)(F)F)cc1)CC2
4. O=C(NO)c1cc2c(s1)CCN(C(=O)c1cccc3cccnc13)C2
5. COc1ccc2ncc(C(=O)NO)cc2c1
6. COc1ccccc1-c1nc(CN2CCc3cc(C(=O)NO)ccc3C2)no1
7. O=C(NO)c1ccc2c(c1)CCCN(C(=O)c1cc(C(F)(F)F)cc(C(F)(F)F)c1)C2

Reply:
4.63
7.00 to 7.30
> 7.30
> 7.30
< 6.30
> 7.30
< 6.30
